Test system: C. elegans complex III (decylubiquinol-cytochrome C reductase)
Assay: In vitro complex III activity assay, C. elegans mitochondria
Type: biochemical, Caenorhabditis elegans
Settings: 100 μM of NPD compound; C. elegans mitochondria; mean of four biological replicates
reported.endpoint: Percent in vitro activity, Complex III (Mean) (%)
Kindly answer with a numeric value in %, unit omitted.

# example entries with known answers
Form: compound = C=C(C)[C@H]1Cc2c(ccc3c2O[C@@H]2COc4cc(OC)c(OC)cc4[C@@H]2C3=O)O1 [Rotenone, reference compound] ; Percent in vitro activity, Complex III (Mean) = 99.203

For record `COc1ccc(N=c2cc(-c3ccc(OC)cc3)oc3ccc(O)cc23)cc1` the listed Percent in vitro activity, Complex III (Mean) is 95.080

The measured Percent in vitro activity, Complex III (Mean) associated with `O=C(NCCc1ccc(Cl)cc1)c1ccccc1C(F)(F)F` reads 90.970

Entry CC(C)Cc1ccc(C(C)c2nc3ccccc3n2C)cc1 (stereo not drawn) , Percent in vitro activity, Complex III (Mean) reported as 63.542

Entry under test: O=C1OC(c2ccccc2)=NC1=CC=Cc1ccccc1 (mixture of isomers) . Its Percent in vitro activity, Complex III (Mean) was 101.940

Percent in vitro activity, Complex III (Mean) reading for `Cc1cc(O)c(C(=O)/C=C/c2ccc(C(C)C)cc2)c(=O)o1` : 58.207

More entries:
Record COc1cc2c(cc1OC)C(C(C)c1ccc(CC(C)C)cc1)=NCC2 (stereo not drawn) . Reported Percent in vitro activity, Complex III (Mean): 79.508

src = paper PMC11079024
